Measured GI50 by item
test system: EKVX; assay: NCI tumour cell line growth inhibition, 48 h
Where a name gives a salt, the structure may show the parent alone. The source made the active and inactive calls. Rule as the data show it: active = GI50 up to about 1.1 µM and inactive = higher.

- molecule: "COC(=O)/C=C1\\C(=O)C=C2[C@@H]3C[C@H]4C[C@H](CC[C@@]4(C)N21)C3(C)NC(C)=O (stereo not given in full)"
  GI50: "11.4 µM (inactive)"
- molecule: "CNC(=S)N/N=C(C)\\C(=N/NC(=S)NC)c1ccccc1"
  GI50: "38 µM (inactive)"
- molecule: "O=C(CCN1CCCCC1)Nc1ccc2sc3ccccc3c(=O)c2n1"
  GI50: "20.2 µM (inactive)"
- molecule: "N#Cc1nc(C(F)(F)F)oc1N"
  GI50: "> 100 µM (inactive)"
- molecule: "CN(C)/C=N/c1nc2ncn(CCOC(=O)c3ccccc3)c2c(=O)[nH]1"
  GI50: "> 100 µM (inactive)"
- molecule: "CCOC(=O)Cc1ccc(Nc2nc3cc(C(F)(F)F)ccc3nc2C(=O)OCC)cc1"
  GI50: "> 100 µM (inactive)"
- molecule: "CC1C=C(CCCCCCCCCCCC[C@@H](O)[C@@H]2CC[C@@H]([C@@H]3CC[C@@H](C(O)CCCCCCCCCCCCC4=C[C@H](C)OC4=O)O3)O2)C(=O)O1 (stereo not given in full)"
  GI50: "1.44 µM (inactive)"
- molecule: "CNC1=C(C)C(=O)C(O)=C([C@H](C)CCC=C(C)C)C1=O"
  GI50: "2.33 µM (inactive)"
- molecule: "Cc1cc(-c2c(Br)cc(C(=O)O)n2C)on1"
  GI50: "> 100 µM (inactive)"
- molecule: "c1ccc(-n2nc3ccc4nonc4c3n2)cc1"
  GI50: "44.6 µM (inactive)"
- molecule: "CC12CCC3=C(CSC4=C3CSc3ccccc34)C1=CCCC2=O (stereo not given)"
  GI50: "42.5 µM (inactive)"
- molecule: "COc1ccccc1C1ON=C(c2ccc([N+](=O)[O-])cc2)N1C12CC3CC(CC(C3)C1)C2 (stereo not given)"
  GI50: "> 100 µM (inactive)"
- molecule: "CCCC1C(=O)Nc2cccc3ncn(c23)C1=O (stereo not given)"
  GI50: "> 100 µM (inactive)"
- molecule: "CC1CC[C@@]23CCC4(C)[C@@](C=CC5[C@@]6(C)CCC(=O)C(C)(C)C6CC[C@]54C)(OC2=O)[C@@H]3[C@H]1C (stereo not given in full)"
  GI50: "32.1 µM (inactive)"
- molecule: "CCOC(=O)NC(Nc1ccc(S(=O)(=O)Nc2ccc(OC)nn2)cc1)(C(F)(F)F)C(F)(F)F"
  GI50: "37 µM (inactive)"
- molecule: "COc1ccc(Nc2nc3ccccc3nc2-c2cccs2)cc1OC"
  GI50: "> 10 µM (inactive)"
- molecule: "CCOC(=O)c1cc(-c2cc(OC)c(OC)c([N+](=O)[O-])c2)c([N+](=O)[O-])n1C"
  GI50: "> 10 µM (inactive)"
- molecule: "COc1cc(/C=C2\\NC(=O)N(/C=C3\\C(=O)Oc4ccccc4C3=O)C2=O)ccc1O"
  GI50: "> 100 µM (inactive)"
- molecule: "COc1ccc2c(c1)OCC1Cc3cc4c(cc3OC21)OCO4 (stereo not given)"
  GI50: "41.1 µM (inactive)"
- molecule: "c1ccc([C@H]2CN3CCSC3=N2)cc1 [LEVAMISOLE HYDROCHLORIDE]"
  GI50: "> 100 µM (inactive)"
